# System: SK-LMS-1
# assay_info: relative viability vs DMSO control (72 h) (fraction); higher = more viable cells
# condition: 0.00051 µM
endpoint: relative viability
Reply with just the number.

CC(=O)Nc1cccc(-n2c(=O)n(C3CC3)c(=O)c3c(Nc4ccc(I)cc4F)n(C)c(=O)c(C)c32)c1 [Trametinib] ... 1.02
CN1CCC(COc2cnc(-c3cccc(Cn4nc(-c5cccc(C#N)c5)ccc4=O)c3)nc2)CC1 [Tepotinib] ... 1.05
Cc1nc(NC(=O)N2CCC[C@H]2C(N)=O)sc1-c1ccnc(C(C)(C)C(F)(F)F)c1 [Alpelisib] ... 1.04
COc1cc2c(Oc3ccc4[nH]c(C)cc4c3F)ncnc2cc1OCCCN1CCCC1 [Cediranib] ... 1.02
Cc1cc(C)c(/C=C2\C(=O)Nc3ccccc32)[nH]1 [Semaxanib] ... 0.907

Prompt: Entry N#CC[C@H](C1CCCC1)n1cc(-c2ncnc3[nH]ccc23)cn1 [Ruxolitinib] : reported relative viability = ?
Response: 1

Prompt: Item under review: COCc1c(-c2cc3cc(C)cc(OC)c3s2)c2c(N)ncnn2c1CN1CCNC(=O)C1 [Rogaratinib] . Reported relative viability?
Response: 0.992
